assay: inhibitors of TWEAK-Fn14 signaling, primary screen, luciferase reporter cells, uHTS (AID 1159606); settings: TWEAK-stimulated Fn14 reporter cells, luciferase luminescence, 8 h; at 10 µM; active compounds read high
Hit rate of the full screen: of about 360,000 compounds, about 7,300 (2%) were called active. This is one part of a sample in which actives are shown more often than they occur.
Readout Name: inhibition (%)
# output: bare number, implied unit %

Look up inhibition: NS(=O)(=O)c1ccc(NC(=O)COC(=O)c2ccco2)cc1
-4.93

Look up inhibition: COc1ccc(CNC(=O)c2c[nH]c3c(OC)cc(OC)cc3c2=O)cc1
-46.6

Look up inhibition: COc1cccc(-c2nc3cc(C)ccc3o2)c1
51.2

Look up inhibition: FC(F)(F)c1ccccc1Cc1c(-c2ccccc2)nc2c3ccccc3ccn12
8.37

Look up inhibition: O=C1c2ccccc2C2=Nc3ccccc3SC(c3ccccc3F)C12 (configuration not stated)
59.2

Look up inhibition: Nc1[nH]c(C(=O)c2ccccc2)c(-c2ccncc2)c1C(=O)NCc1cccc2ccccc12
36

Look up inhibition: Cc1ccc(Cc2c(-c3ccc(Cl)cc3)nc3c4ccccc4ccn23)cc1
22

Look up inhibition: CCCc1nn(C)c2c(=O)[nH]c(-c3cc(S(N)(=O)=O)ccc3OCC)nc12
-1.76

Look up inhibition: CC1(C)OC(=O)C2=C(C[C@@H](C3CCCC3)O[C@@H]2c2ccc(Cl)cc2)O1
1.8

Look up inhibition: COc1cc2c(cc1OC)/C(=C/C(=O)c1ccc(NC(C)=O)cc1)NCC2
-11.2

Look up inhibition: c1ccc(Cc2c(-c3ccco3)nc3c4ccccc4ccn23)cc1
57.8

Look up inhibition: O=[N+]([O-])c1ccc2oc(-c3cccc(O)c3)nc2c1
5.84

Look up inhibition: c1cc(-c2ccc3[nH]ccc3c2)n2ccnc2c1
-2.85

Look up inhibition: CC(C(=O)NCC1CCCCC1)N(C)Cc1cccc(Cl)c1 (configuration not stated)
-0.37

Look up inhibition: CCOC1CCCCC1NS(=O)(=O)c1ccc(Cl)cc1 (configuration not stated)
23.1

Look up inhibition: COc1ccccc1-n1nnnc1S(=O)(=O)Cc1ccc(Cl)cc1
102

Look up inhibition: CC1CN/C(=C\C(=O)c2ccc(Br)cc2)C(=O)N1 (configuration not stated)
62.2

Look up inhibition: CCOc1ccc(NC(=O)c2ccc(NC(=O)CN3C(=O)C(=O)N(CC(C)C)C3=O)cc2)cc1
-46.8

Look up inhibition: CC(C)Cn1cc(-c2cncc3nccn23)cn1
5.78

Look up inhibition: Cc1ccc(-c2c[n+](=O)c3c(n2[O-])CCC3)cc1
-2.42

Look up inhibition: Cc1nc(N2CCN(c3ccccn3)CC2)c2c(C)c(C(=O)Nc3ccc(F)cc3)sc2n1
18.8

Look up inhibition: NS(=O)(=O)c1ccc(NC(=O)COC(=O)c2c3c(nc4ccccc24)/C(=C\c2ccc4c(c2)OCO4)CCC3)cc1
55.8

###

Give measured inhibition for each item. Keep answers brief.
assay: inhibitors of TWEAK-Fn14 signaling, primary screen, luciferase reporter cells, uHTS (AID 1159606); details: TWEAK-stimulated Fn14 reporter cells, luciferase luminescence, 8 h; at 10 µM; active compounds read high
Among all 360,000 compounds or so, about 7,300 (2%) were called active. The sample holds actives, similar compounds and a random draw of the others, so the mix is not that of the screen.
# output: bare number, implied unit %

Look up inhibition: CC(C)Nc1ncnc2c1ncn2[C@H]1CN(Cc2ccncc2)C[C@@H](CO)O1
-31.2

Look up inhibition: COC(=O)C1NN=C(C(=O)c2ccc(Br)cc2)C1c1cccc(Br)c1 (stereo not drawn)
48.4

Look up inhibition: Cc1ccc(CNC(=O)CCCNC(=O)c2ccc(Cl)cc2)n1C
-27.7

Look up inhibition: Cc1ccc(C(=O)O/N=C(\N)c2ccccn2)cc1Cl
92.3

Look up inhibition: CCCCNc1c(-c2ccc(OC)c(Sc3ccc(OC)cc3)c2)nc2ccc(Cl)cn12
5.14

Look up inhibition: Cn1nnnc1SCC(=O)Nc1ccccc1C(=O)NC1CC1
-4.44

Look up inhibition: Cc1cccc(/C(N)=N/OC(=O)c2ccccc2Cl)c1
31.2

Look up inhibition: CCOc1ccc(CN2CCNC(=O)C2CC(=O)NCCCC2CCCC2)cc1 (stereo not drawn)
7.15

Look up inhibition: Cc1ccc(-c2c(C)n([O-])c3c([n+]2=O)CCC3)cc1
19

Look up inhibition: Cc1noc(C)c1COC(=O)Cn1c(C)nc2ccccc21
-13

Look up inhibition: COCCc1nn2c(=O)cc(COC(=O)c3cc(OC)c(OC)c(OC)c3)nc2s1
2.03

Look up inhibition: O=C(NC1CCCC1)C1c2ccccc2OCC(=O)N1CC(F)(F)F (stereo not drawn)
1.42

Look up inhibition: CC(=NCc1ccco1)c1c(C(F)(F)F)[nH]n(-c2nc3ccccc3s2)c1=O
75.8

Look up inhibition: CSc1ccccc1NC(=O)COC(=O)CCCOc1ccc(C)cc1
-5.19

Look up inhibition: Cc1nnc(SC(C(=O)Nc2cc(Cl)cc(Cl)c2)c2ccccc2)[nH]c1=O (stereo not drawn)
-1.44

Look up inhibition: CN(C)c1ccc2c(=O)[nH][nH]c(=O)c2c1
-6.35

Look up inhibition: Nc1nnc(SCC(=O)Nc2ccc3nc(SCC(=O)Nc4ccccc4)sc3c2)s1
86.4

Look up inhibition: CCCCCCCCCCOC(=O)Cn1c(COc2ccc(C)cc2)[n+](C)c2ccccc21
76.3

Look up inhibition: Cc1cccc(OCC(=O)NCC(=O)N/N=C/c2ccc(N(C)C)cc2)c1
-4.48

Look up inhibition: Clc1ccc(-c2cccc3nccn23)cc1
-3.21

Look up inhibition: CCCNS(=O)(=O)c1ccc(CCC(=O)NCc2cccnc2)cc1
6.9

Look up inhibition: O=C(CCC(=O)OCc1cccc(C(=O)Oc2ccccc2)c1)Nc1cccc2ccccc12
-15.2

Look up inhibition: CC(=O)c1c(C)n(-c2ccc(C)cc2)c2ccc(O)cc12
15.6

Look up inhibition: Nn1c(SCC(=O)Nc2ccc3c(c2)CCC3)nnc1C1CC1
1.14

Look up inhibition: N/C(=N\OC(=O)c1ccc([N+](=O)[O-])cc1)c1ccccn1
77.4

Look up inhibition: Cc1cc(C)cc(OCC(=O)O/N=C(\N)Cc2ccc([N+](=O)[O-])cc2)c1
-9.61

Look up inhibition: CC(C)c1ccc2c(c1)c(SC(C)(C)C)c(CC(C)(C)C(=O)O)n2Cc1ccc(Cl)cc1
79.3

Look up inhibition: CN(C(=O)c1cccc(OC2CCN(S(=O)(=O)N(C)C)CC2)c1)C1CCOC1 (stereo not drawn)
-26.3

Look up inhibition: Cn1nnc2cc(C(=O)NCCC3=CCCCC3)ccc21
51.2

Look up inhibition: Cc1ccc(-c2cc(=O)[nH]c(NCc3ccccc3)n2)cc1
9.23

Look up inhibition: CC(C)C[C@@H](COCc1ccc(Cl)cc1)N1CCN(C(=O)c2ccc(Cl)cc2Cl)CCC1=O
-5.63

Look up inhibition: CCN(CC)CCn1cnc2c1c(=O)n(CCOC(=O)c1cc(OC)c(OC)c(OC)c1)c(=O)n2C
-2.5

Look up inhibition: N#Cc1cccc(NC(=O)c2cc(C3CCCCN3C(=O)CCc3ccccc3)on2)c1 (stereo not drawn)
26.1

Look up inhibition: Cc1cccnc1CCNC(=O)C1CCC(=O)N(Cc2cccc(F)c2)C1 (stereo not drawn)
-10.1

Look up inhibition: O=C(NCCC1=CCCCC1)c1ccc(Cl)c([N+](=O)[O-])c1
-14.2

Look up inhibition: CCCCNc1c(-c2cccc(Sc3ccc(OC)cc3)c2)nc2ccccn12
53.7

Look up inhibition: Cc1ccc(C)c(NC(=O)CN(C)C(=O)c2ccc3ncsc3c2)c1
1.46

Look up inhibition: O=C(Cc1ccc(S(=O)(=O)N2CCOCC2)s1)Nc1ccc(Br)c(C(F)(F)F)c1
17.8

Look up inhibition: CC(CC(=O)O)C(=O)c1ccc(Cl)c([N+](=O)[O-])c1 (stereo not drawn)
0.14

Look up inhibition: CC(C)CN(C(=O)c1cccc(S(=O)(=O)N2CCCCC2)c1)C1CCS(=O)(=O)C1 (stereo not drawn)
-4.27

Look up inhibition: CCC1CCCCN1C(=O)Nc1cccc(NC(=O)N2CCCCC2CC)c1 (stereo not drawn)
-4.07

Look up inhibition: CC1CC(C)CN(S(=O)(=O)c2ccc(C(=O)NN3CCOCC3)cc2)C1 (stereo not drawn)
15.8

Look up inhibition: N/C(Cc1ccc([N+](=O)[O-])cc1)=N\OC(=O)COc1ccc2ccccc2c1
-1.78
